All figures here come from ChEMBL document CHEMBL1146110.

Each item that follows carries a reported pKi.
Target: Carbonic anhydrase 4 (Bos taurus, UniProt Q95323)
Sequence (Q95323 whole entry): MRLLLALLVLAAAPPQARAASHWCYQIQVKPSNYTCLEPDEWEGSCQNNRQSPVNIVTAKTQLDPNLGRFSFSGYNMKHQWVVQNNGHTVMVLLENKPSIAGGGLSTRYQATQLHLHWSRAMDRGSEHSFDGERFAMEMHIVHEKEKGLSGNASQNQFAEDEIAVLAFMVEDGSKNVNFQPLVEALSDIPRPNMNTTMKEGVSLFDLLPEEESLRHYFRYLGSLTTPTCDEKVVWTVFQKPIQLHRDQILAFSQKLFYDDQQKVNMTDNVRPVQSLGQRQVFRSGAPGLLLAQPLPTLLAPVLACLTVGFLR
pKi: −log10 of the molar value.

>  <smiles-record>
NCCCC(=O)Nc1ccc(S(N)(=O)=O)cc1I

>  <pKi>
7.25

$$$$
>  <smiles-record>
NCCCC(=O)Nc1cccc(S(N)(=O)=O)c1

>  <pKi>
6.67

$$$$
>  <smiles-record>
NCCCC(=O)OCCOc1ccc2nc(S(N)(=O)=O)sc2c1

>  <pKi>
7.96

$$$$
>  <smiles-record>
NCCCC(=O)Nc1ccc(S(N)(=O)=O)cc1F

>  <pKi>
7.42

$$$$
>  <smiles-record>
NCCCC(=O)Nc1cc(Cl)c(S(N)(=O)=O)cc1S(N)(=O)=O

>  <pKi>
7.30

$$$$

* * *

Molecular target: Carbonic anhydrase 1 (Homo sapiens, UniProt P00915)
Sequence (P00915 whole entry): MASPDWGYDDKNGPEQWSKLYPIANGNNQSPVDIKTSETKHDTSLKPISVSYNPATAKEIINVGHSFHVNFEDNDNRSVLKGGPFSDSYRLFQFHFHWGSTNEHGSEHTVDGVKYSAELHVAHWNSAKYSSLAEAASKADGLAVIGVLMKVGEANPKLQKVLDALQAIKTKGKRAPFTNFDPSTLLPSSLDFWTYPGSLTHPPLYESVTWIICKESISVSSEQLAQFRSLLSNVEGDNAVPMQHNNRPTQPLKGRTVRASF
pKi: −log10 of the molar value.
If the reported pKi equals or exceeds 6, assign label 1. If not, assign label 0.

>  <smiles-record>
NCCCC(=O)Nc1ccc(S(=O)(=O)Nc2cccc(S(N)(=O)=O)c2)cc1

>  <target-of-assay>
Carbonic anhydrase 1 (Homo sapiens, UniProt P00915)

>  <category-label>
label 1

$$$$
>  <smiles-record>
NCCCC(=O)Nc1ccc(S(N)(=O)=O)cc1I

>  <target-of-assay>
Carbonic anhydrase 1 (Homo sapiens, UniProt P00915)

>  <category-label>
label 1

$$$$
>  <smiles-record>
NCCCC(=O)Nc1nnc(S(N)(=O)=O)s1

>  <target-of-assay>
Carbonic anhydrase 1 (Homo sapiens, UniProt P00915)

>  <category-label>
label 1

$$$$
>  <smiles-record>
NCCCC(=O)Nc1cc(Cl)c(S(N)(=O)=O)cc1S(N)(=O)=O

>  <target-of-assay>
Carbonic anhydrase 1 (Homo sapiens, UniProt P00915)

>  <category-label>
label 1

$$$$
>  <smiles-record>
NCCCC(=O)Nc1ccccc1S(N)(=O)=O

>  <target-of-assay>
Carbonic anhydrase 1 (Homo sapiens, UniProt P00915)

>  <category-label>
label 0

$$$$
